System name: human HER2 Extracellular Domain (HER2 ECD) (human, UniProt P04626 23-652)
Experiment notes: ELISA, antigen coated, hybridoma supernatant
Description: For the ELISA screening an antigen down format was used. […] Hybridoma Supernatant was added to the plates and incubated for 1 h at room temperature. Bound antibody was detected with a HRP-labeled F(ab′)₂ goat anti-mouse Fcγ (Dianova) and ABTS (Roche) was used as a HRP-substrate. As negative controls the scaffold proteins TtSlyDcas and TgSlyDΔIF were used.

| Binder | binding result |
| --- | --- |
| anti-HER3 antibody M-17-12 (antibody, V domains shown, mouse hybridoma clone; VH and VL stated identical to those of M-17-02) VH: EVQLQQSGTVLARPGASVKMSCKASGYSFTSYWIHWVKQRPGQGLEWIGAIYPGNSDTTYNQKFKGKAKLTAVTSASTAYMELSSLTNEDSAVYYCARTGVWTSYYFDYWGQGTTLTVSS VL: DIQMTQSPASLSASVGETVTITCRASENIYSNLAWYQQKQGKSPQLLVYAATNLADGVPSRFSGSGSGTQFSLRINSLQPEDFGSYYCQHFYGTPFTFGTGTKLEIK | no binding |
| anti-HER3 antibody M-43-01 (antibody, V domains shown, mouse hybridoma clone) VH: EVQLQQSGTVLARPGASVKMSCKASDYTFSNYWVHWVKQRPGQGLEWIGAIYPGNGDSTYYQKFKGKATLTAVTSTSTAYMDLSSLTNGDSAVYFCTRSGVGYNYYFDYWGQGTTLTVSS VL: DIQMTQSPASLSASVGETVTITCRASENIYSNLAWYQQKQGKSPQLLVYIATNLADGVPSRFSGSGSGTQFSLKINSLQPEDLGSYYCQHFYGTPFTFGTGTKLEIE | no binding |
| anti-HER3 antibody M-08-11 (antibody, V domains shown, mouse monoclonal antibody from hybridoma, tested as hybridoma supernatant or as antibody; also called M-011) VH: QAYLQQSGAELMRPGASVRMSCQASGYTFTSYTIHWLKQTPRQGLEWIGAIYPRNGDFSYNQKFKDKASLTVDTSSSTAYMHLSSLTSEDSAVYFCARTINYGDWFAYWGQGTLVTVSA VL: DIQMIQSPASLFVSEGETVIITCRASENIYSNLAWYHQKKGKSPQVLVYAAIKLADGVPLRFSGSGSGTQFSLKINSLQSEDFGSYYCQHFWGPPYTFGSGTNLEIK | no binding |
